Assay: Pharmacokinetics and oral bioavailability in the mouse
Format: in vivo
Details: male, Balb Nu/Nu, plasma, 10 mg/kg intravenous bolus, mean value, read-out: Vdss (IV bolus)
Readout: Vd (L/kg)
State just the number; it will be interpreted in L/kg.

[
  {
    "Compound": "CNCCCOc1c(-c2ccccc2)[nH]c(=O)c2ccccc12.Cl [Compound 12]",
    "Result Units": "L/kg",
    "Vd": 3.3
  },
  {
    "Compound": "Cl.NCCOc1c(-c2ccccc2)[nH]c(=O)c2cc(F)ccc12 [Compound 39]",
    "Result Units": "L/kg",
    "Vd": 1.7
  },
  {
    "Compound": "COc1ccc(-c2[nH]c(=O)c3cc(F)ccc3c2OCCN)cc1.Cl [Compound 25]",
    "Result Units": "L/kg",
    "Vd": 2.3
  },
  {
    "Compound": "Cl.NCCOc1c(-c2cccc(Cl)c2)[nH]c(=O)c2ccccc12 [Compound 48]",
    "Result Units": "L/kg",
    "Vd": 4.1
  },
  {
    "Compound": "O=c1[nH]c(-c2cccc(O)c2)c(OCCCN2CCCCC2)c2ccccc12 [Compound 33]",
    "Result Units": "L/kg",
    "Vd": 2.9
  }
]

Problem: Recorded Vd for COc1cccc(-c2[nH]c(=O)c3ccccc3c2OCCN)c1.Cl [Compound 11] , please?
Result: 2.6

Problem: Recorded Vd for COc1ccc(-c2[nH]c(=O)c3ccccc3c2OCCN)cc1.Cl [Compound 24] , please?
Result: 3

// data source = patent US8993594B2
